Origin of values: patent US8957078B2

Could you please report measured pKi for the items listed next?
target: ATR kinase (full-length ATR) (Homo sapiens); construct: in the presence of 5 nM full-length ATR; test: ATR Inhibition Assay (radioactive-phosphate incorporation); conditions: Ki(app); 5 nM full-length ATR, 10 μM ATP, 800 μM target peptide, 25° C.
Sequence (Q13535 whole entry): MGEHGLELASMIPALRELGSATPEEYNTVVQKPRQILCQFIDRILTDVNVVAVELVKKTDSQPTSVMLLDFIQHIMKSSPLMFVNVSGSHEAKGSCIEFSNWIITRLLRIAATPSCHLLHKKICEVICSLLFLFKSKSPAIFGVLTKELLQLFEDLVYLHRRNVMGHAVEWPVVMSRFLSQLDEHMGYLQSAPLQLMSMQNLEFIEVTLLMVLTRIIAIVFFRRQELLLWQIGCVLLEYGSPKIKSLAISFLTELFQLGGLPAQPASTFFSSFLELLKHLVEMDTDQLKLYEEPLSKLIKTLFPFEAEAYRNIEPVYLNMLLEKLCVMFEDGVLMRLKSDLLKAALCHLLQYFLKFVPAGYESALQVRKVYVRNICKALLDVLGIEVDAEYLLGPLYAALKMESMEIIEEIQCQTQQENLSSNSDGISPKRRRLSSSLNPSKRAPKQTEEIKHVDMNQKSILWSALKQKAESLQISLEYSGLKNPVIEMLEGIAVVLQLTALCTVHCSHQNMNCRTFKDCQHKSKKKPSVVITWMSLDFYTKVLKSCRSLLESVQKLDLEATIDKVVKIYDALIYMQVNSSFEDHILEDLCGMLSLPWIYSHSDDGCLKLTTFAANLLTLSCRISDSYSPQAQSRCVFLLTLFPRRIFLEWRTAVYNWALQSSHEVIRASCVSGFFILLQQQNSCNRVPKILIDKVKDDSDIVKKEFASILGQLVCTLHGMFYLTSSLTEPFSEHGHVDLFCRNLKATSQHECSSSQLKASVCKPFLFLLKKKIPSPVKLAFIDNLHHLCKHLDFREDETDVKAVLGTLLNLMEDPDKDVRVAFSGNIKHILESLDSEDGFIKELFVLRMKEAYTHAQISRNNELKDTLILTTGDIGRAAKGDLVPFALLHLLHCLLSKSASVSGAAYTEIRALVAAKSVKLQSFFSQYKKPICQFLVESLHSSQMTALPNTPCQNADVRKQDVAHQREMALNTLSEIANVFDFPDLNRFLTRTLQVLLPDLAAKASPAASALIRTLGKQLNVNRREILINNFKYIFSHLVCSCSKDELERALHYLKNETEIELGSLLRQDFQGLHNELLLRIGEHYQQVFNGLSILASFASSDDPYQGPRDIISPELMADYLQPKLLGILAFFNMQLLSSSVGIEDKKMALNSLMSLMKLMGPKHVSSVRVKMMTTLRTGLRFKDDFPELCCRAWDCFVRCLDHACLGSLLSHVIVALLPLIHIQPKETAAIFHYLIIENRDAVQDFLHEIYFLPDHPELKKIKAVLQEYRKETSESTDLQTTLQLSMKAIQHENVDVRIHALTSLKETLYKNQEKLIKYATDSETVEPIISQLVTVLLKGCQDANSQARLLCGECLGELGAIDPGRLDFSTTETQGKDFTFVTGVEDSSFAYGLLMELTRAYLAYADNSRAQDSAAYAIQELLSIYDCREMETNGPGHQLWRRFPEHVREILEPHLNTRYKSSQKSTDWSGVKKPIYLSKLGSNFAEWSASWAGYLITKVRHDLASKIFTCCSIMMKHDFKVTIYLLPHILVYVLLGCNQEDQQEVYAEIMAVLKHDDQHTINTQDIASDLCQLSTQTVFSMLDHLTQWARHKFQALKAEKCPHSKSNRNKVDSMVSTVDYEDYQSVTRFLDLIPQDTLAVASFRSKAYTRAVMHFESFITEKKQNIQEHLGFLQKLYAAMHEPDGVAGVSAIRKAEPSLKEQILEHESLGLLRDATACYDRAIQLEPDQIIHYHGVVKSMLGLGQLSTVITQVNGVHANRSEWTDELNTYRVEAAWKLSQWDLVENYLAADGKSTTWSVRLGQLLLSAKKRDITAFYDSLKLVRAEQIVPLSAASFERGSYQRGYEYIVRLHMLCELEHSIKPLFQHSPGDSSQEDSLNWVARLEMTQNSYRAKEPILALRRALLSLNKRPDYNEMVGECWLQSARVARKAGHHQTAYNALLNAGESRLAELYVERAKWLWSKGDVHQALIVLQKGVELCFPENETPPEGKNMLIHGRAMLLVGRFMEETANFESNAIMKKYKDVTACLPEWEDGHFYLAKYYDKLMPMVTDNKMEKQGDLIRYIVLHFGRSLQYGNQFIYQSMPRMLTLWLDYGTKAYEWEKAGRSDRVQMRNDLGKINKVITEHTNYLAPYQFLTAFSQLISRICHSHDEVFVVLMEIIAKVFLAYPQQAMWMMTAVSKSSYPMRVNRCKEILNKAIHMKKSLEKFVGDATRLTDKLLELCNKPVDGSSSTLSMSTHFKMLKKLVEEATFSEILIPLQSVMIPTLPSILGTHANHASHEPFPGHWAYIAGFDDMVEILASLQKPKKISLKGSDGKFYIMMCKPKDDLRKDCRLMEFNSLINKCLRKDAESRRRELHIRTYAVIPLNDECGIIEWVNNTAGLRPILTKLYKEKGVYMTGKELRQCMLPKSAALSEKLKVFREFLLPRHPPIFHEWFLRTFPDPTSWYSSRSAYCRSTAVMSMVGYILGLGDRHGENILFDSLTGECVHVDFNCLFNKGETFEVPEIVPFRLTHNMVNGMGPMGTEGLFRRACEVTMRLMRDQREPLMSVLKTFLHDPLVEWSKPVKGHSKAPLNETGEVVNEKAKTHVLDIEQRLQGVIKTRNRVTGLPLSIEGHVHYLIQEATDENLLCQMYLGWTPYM
pKi: −log10 of the molar value.

Request: # input compound: Cc1nsc(NC(=O)c2c(N)nn3cc(F)cnc23)c1C1CC1 [I-E-2] ; wanted: its pKi
Result: 6.00 to 8.00

Request: Which value of pKi has been reported for CN1CCC(Oc2ncncc2NC(=O)c2c(N)nn3cc(Cl)cnc23)CC1 [I-A-6] in the records?
Result: 5.30 to 6.00

Request: Which pKi value belongs to CC(=O)N1CC=C(c2c(C)nsc2NC(=O)c2c(N)nn3cc(F)cnc23)CC1 [I-E-9] ?
Result: 6.00 to 8.00

Request: If you can, please state the reported pKi value of CN(C)[C@H]1CC[C@H](Oc2ncncc2NC(=O)c2c(N)nn3ccc(C(F)(F)F)nc23)CC1 [I-A-13] .
Result: 6.00 to 8.00

Request: Would you kindly share the measured pKi for CN1CCC(Oc2ncncc2NC(=O)c2c(N)nn3cc(F)cnc23)CC1 [I-A-5] ?
Result: 6.00 to 8.00

Request: What value of pKi has been reported for the following compound? Cc1ncc(NC(=O)c2c(N)nn3cc(F)cnc23)n1-c1ccccc1 [I-D-6]
Result: 6.00 to 8.00

Request: # get_value(readout='pKi', item= CN1CCN(C(=O)C2CCN(c3ncncc3NC(=O)c3c(N)nn4cc(F)cnc34)CC2)CC1 [I-A-19] )
Result: 5.30 to 6.00

Request: Which pKi reading was recorded for the compound Cc1ncccc1-c1cnccc1NC(=O)c1c(N)nn2cc(F)cnc12 [I-C-5] ?
Result: 6.00 to 8.00

Request: Give the measured pKi of CN1CCN(C(=O)c2ccc(-c3cnncc3NC(=O)c3c(N)nn4cc(F)cnc34)cc2)CC1 [I-B-13] .
Result: 6.00 to 8.00
